Target: PIM2 (Homo sapiens)
Sequence (Q9P1W9 whole entry): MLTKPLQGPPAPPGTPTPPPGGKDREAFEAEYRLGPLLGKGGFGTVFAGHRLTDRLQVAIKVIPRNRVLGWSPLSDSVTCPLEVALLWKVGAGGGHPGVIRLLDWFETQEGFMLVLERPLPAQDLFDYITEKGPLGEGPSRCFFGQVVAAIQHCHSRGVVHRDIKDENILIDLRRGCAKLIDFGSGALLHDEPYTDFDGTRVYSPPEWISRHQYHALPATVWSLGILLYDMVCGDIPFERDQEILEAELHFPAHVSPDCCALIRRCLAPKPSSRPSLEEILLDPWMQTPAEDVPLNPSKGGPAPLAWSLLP
Assay: KinaseGlo Pim2 ATP depletion assay
Format: biochemical
Lab note: anything with IC50 below 40 nM is marked 1; values at 40 nM or higher are marked 0.

Worked examples follow.
{"Compound": "O=C(Nc1cnccc1[C@@H]1OCC[C@H](CO)O1)c1ccc(F)c(-c2c(F)cccc2F)n1", "Target Entity": "PIM2 (Homo sapiens)", "Answer Label": 0}
{"Compound": "CC[C@H]1O[C@@H](c2ccncc2NC(=O)c2nc(-c3c(F)cccc3F)c(F)cc2N)C[C@@H](O)[C@@H]1O", "Target Entity": "PIM2 (Homo sapiens)", "Answer Label": 1}
{"Compound": "C[C@H]1C[C@@H](N)C[C@@H](c2ccncc2NC(=O)c2csc(-c3c(F)cccc3F)n2)O1", "Target Entity": "PIM2 (Homo sapiens)", "Answer Label": 0}
{"Compound": "CC1(C)O[C@H](c2ccncc2NC(=O)c2ccc(F)c(-c3c(F)cccc3F)n2)C[C@@H](O)[C@H]1O", "Target Entity": "PIM2 (Homo sapiens)", "Answer Label": 0}
{"Compound": "O=C(Nc1cnccc1[C@@H]1C[C@H](O)[C@]2(O)CCC[C@@H]2O1)c1ccc(F)c(-c2c(F)cccc2F)n1", "Target Entity": "PIM2 (Homo sapiens)", "Answer Label": 0}

Next item in the queue.
Please let me know if C[C@H]1O[C@@H](c2ccncc2NC(=O)c2nc(-c3nccs3)ccc2N)C[C@@H](O)[C@]1(C)O shows IC50 below 40 nM.
0

---

I'd be grateful if you could share measured pIC50 for these entries.
Target: PIM1 (Homo sapiens)
Sequence (P11309 whole entry): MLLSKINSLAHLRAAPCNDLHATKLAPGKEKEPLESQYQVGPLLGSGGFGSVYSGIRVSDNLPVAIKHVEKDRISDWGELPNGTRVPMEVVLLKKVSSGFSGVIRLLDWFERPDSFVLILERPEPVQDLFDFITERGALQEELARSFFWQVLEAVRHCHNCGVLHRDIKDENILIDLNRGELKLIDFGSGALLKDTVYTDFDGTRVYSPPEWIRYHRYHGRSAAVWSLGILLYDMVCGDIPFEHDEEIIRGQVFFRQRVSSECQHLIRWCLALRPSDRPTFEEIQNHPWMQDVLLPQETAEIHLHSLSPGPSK
Experiment: KinaseGlo Pim1 ATP depletion assay
Type: biochemical
Give bare numbers, as −log10 of the molar value.

Sample records with pIC50:
{"Compound": "N#C[C@H]1O[C@@H](c2ccncc2NC(=O)c2nc(-c3c(F)cccc3F)ncc2N)C[C@@H](O)[C@@H]1O", "Target Entity": "PIM1 (Homo sapiens)", "Test Result": 7.53}
{"Compound": "C[C@H]1O[C@@H](c2ccncc2NC(=O)c2csc(-c3c(F)cccc3F)n2)[C@H](F)[C@@H](O)[C@]1(C)O (stereo in doubt)", "Target Entity": "PIM1 (Homo sapiens)", "Test Result": 8.22}
{"Compound": "N#CC[C@H]1O[C@@H](c2ccncc2NC(=O)c2nc(-c3c(F)cccc3F)ncc2N)C[C@@H](O)[C@@H]1O [Example 153]", "Target Entity": "PIM1 (Homo sapiens)", "Test Result": 7.63}
{"Compound": "C[C@H]1O[C@@H](c2ccncc2NC(=O)c2ccc(F)c(-c3c(F)cccc3F)n2)C[C@H](O)[C@@H]1O", "Target Entity": "PIM1 (Homo sapiens)", "Test Result": 9.00}
{"Compound": "N#CC[C@H]1O[C@@H](c2ccncc2NC(=O)c2nc(-c3c(F)cccc3F)ncc2N)C[C@@H](O)[C@@H]1O [Example 138]", "Target Entity": "PIM1 (Homo sapiens)", "Test Result": 7.62}

Please turn your attention to the following entry.
Check the records and state pIC50 for N#Cc1ccc(F)c(-c2nc(C(=O)Nc3cnccc3[C@H]3C[C@@H](O)[C@H](O)[C@@H](CCl)O3)ccc2F)c1F
7.77

---

Biological target: UniProtKB Q9P1W9
Experiment: KinaseGlo Pim2 ATP depletion assay
Assay type: biochemical
Property Label: log10 IC50 (log10 of the value in nM)
Friendly reminder: values = log10 of IC50, unit nM.

{"Molecule": "O=C(Nc1cnccc1[C@H]1C[C@@H](O)[C@H](O)[C@@H](CCl)O1)c1ccnc(-c2c(F)cccc2F)n1", "Test Result": 1.81}
{"Molecule": "CC[C@]1(O)[C@H](O)C[C@H](c2ccncc2NC(=O)c2ncccc2N)O[C@@H]1C", "Test Result": 1.83}

Could you tell me log10 IC50 for each of these molecules? They are listed below.
1. O=C(Nc1cnccc1C1=C[C@@H](O)[C@H](O)[C@@H](CCl)O1)c1ccc(F)c(-c2c(F)cccc2F)n1
2. Nc1cnc(-c2c(F)cccc2F)nc1C(=O)Nc1cnccc1[C@@H]1C[C@H](O)[C@]2(O)CCCC[C@@H]2O1
3. O=C(Nc1cnccc1[C@]1(C(F)(F)F)C[C@H](O)C=CO1)c1ccc(F)c(-c2c(F)cccc2F)n1
4. O=C(Nc1cnccc1[C@@]1(C(F)(F)F)C[C@@H](O)C=CO1)c1ccc(F)c(-c2c(F)cccc2F)n1
5. CC[C@]1(O)[C@H](O)C[C@H](c2ccncc2NC(=O)c2nc(-c3nccs3)ccc2N)O[C@@H]1C

1: 0.00; 2: 1.77; 3: 3.15; 4: 4.29; 5: 1.82

Provide log10 IC50 values for the following items, in order.
1. CC[C@]1(O)[C@H](O)C[C@H](c2ccncc2NC(=O)c2ccc(F)c(-c3c(F)cccc3F)n2)O[C@@H]1C (stereo in doubt)
2. CC[C@H]1O[C@@H](c2ccncc2NC(=O)c2c[nH]cc(-c3ccccc3F)c2=O)C[C@@H](O)[C@@H]1O
3. O=C(Nc1cnccc1[C@H]1C[C@@H](O)[C@@]2(O)CCCC[C@H]2O1)c1c[nH]cc(-c2ccccc2)c1=O
4. O=C(Nc1cnccc1[C@@H]1OCC[C@H](CO)O1)c1csc(-c2c(F)cccc2F)n1
5. C=C1[C@@H](O)C[C@@H](c2ccncc2NC(=O)c2nc(-c3ccccc3)cnc2N)OC12CC2
6. NC(=O)C[C@H]1O[C@@H](c2ccncc2NC(=O)c2ccc(F)c(-c3c(F)cccc3F)n2)C[C@@H](O)[C@@H]1O [Example 159]
7. CC[C@H]1O[C@@H](c2ccncc2NC(=O)c2nc(-c3c(F)cccc3F)c(F)cc2N)C[C@@H](O)[C@]1(C)O

1: 2.88; 2: 3.84; 3: 3.34; 4: 3.53; 5: 2.40; 6: 3.82; 7: 0.08

Give log10 IC50 for all molecules that follow.
1. C[C@@H]1C[C@H](N)C[C@H](c2ccncc2NC(=O)c2csc(-c3c(F)cccc3F)n2)O1
2. CC1(C)O[C@@H](c2ccncc2NC(=O)c2csc(-c3c(F)cccc3F)n2)C[C@H](O)[C@@H]1O
3. O=C(Nc1cnccc1[C@@H]1C[C@H](O)[C@]2(O)CCCC[C@@H]2O1)c1ccc(F)c(-c2c(F)cccc2F)n1

2.90
1.90
2.23

Parameter requested: log10 IC50. Apply to each item below.
1. N#CC[C@H]1O[C@@H](c2ccncc2NC(=O)c2nc(-c3c(F)cccc3F)ncc2N)C[C@@H](O)[C@@H]1O [Example 138]
2. CC[C@]1(O)[C@H](O)C[C@H](c2ccncc2NC(=O)c2nc(-c3c(F)cccc3F)ncc2N)O[C@@H]1C [Example 143]
3. C=C1[C@@H](O)C[C@@H](c2ccncc2NC(=O)c2nc(-c3c(F)cccc3F)ncc2N)OC12CC2
4. C=C1[C@H](O)C[C@H](c2ccncc2NC(=O)c2nc(-c3c(F)cccc3F)ncc2N)OC12CC2
5. O=C(Nc1cnccc1[C@@H]1C[C@H](O)CCO1)c1ccc(F)c(-c2c(F)cccc2F)n1
6. C[C@@H]1O[C@H](c2ccncc2NC(=O)c2nc(-c3ccccc3)cnc2N)[C@@H](F)[C@H](O)[C@@]1(C)O
7. C[C@@H]1O[C@H](c2ccncc2NC(=O)c2csc(-c3c(F)cccc3F)n2)C[C@H](O)[C@@]1(C)O (stereo in doubt)

[1.43, 0.54, 2.45, 2.51, 2.67, 2.97, 1.63]

Below are 2 molecules. Give each one its log10 IC50.
1. C[C@H]1O[C@@H](c2ccncc2NC(=O)c2ccc(F)c(-c3c(F)cccc3F)n2)[C@H](O)[C@@H](O)[C@]1(C)O (stereo in doubt)
2. C[C@@H]1O[C@H](c2ccncc2NC(=O)c2csc(-c3c(F)cccc3F)n2)[C@@H](F)[C@H](O)[C@@]1(C)O (stereo in doubt)

2.86
2.51
